molecular target: human CD28 (human, UniProt P10747 19-220, On cells CD28 is a disulfide linked homodimer and a glycoprotein; one copy of the chain is given.); assay: cell-based or functional assay
Sequence (P10747 19-220 limits assumed): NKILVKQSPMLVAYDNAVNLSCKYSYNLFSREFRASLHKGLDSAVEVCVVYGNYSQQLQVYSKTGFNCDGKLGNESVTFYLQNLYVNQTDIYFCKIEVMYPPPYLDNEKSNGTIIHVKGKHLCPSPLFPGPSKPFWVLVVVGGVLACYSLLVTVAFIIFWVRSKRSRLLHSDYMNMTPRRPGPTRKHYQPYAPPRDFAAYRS

binder | Division Index (no anti-CD3)
exemplary anti-CD28 antibody AB4 (antibody, V domains shown, Mouse hybridoma monoclonal antibody; Conjugated to PE in the staining assays; also called antibody 4; clone 4) VH: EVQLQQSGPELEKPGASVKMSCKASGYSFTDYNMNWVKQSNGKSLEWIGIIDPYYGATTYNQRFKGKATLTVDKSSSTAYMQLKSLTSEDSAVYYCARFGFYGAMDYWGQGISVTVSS VL: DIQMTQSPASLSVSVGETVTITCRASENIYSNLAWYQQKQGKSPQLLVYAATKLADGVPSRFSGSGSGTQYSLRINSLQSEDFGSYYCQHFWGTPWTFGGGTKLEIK | 0.0002
exemplary anti-CD28 antibody AB5 (antibody, V domains shown, Mouse hybridoma monoclonal antibody; Conjugated to PE in the staining assays; also called antibody 5; clone 5) VH: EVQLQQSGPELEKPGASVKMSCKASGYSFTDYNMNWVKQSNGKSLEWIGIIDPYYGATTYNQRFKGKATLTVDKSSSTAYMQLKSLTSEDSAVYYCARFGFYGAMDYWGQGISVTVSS VL: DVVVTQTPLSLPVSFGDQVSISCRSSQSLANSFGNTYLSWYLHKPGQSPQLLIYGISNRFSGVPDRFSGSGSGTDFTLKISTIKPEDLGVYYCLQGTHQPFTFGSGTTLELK | 0.0082
exemplary anti-CD28 antibody AB3 (antibody, V domains shown, Mouse hybridoma monoclonal antibody; Conjugated to PE in the staining assays; also called antibody 3; clone 3) VH: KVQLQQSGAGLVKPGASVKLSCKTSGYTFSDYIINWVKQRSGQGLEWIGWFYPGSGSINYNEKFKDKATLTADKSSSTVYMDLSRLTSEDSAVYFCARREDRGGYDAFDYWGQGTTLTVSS VL: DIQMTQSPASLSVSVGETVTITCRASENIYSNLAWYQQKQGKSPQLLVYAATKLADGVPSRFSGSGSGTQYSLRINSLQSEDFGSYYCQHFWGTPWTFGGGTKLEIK | 0.0056
exemplary anti-CD28 antibody AB8 (antibody, V domains shown, Mouse hybridoma monoclonal antibody; Conjugated to PE in the staining assays; also called antibody 8; clone 8) VH: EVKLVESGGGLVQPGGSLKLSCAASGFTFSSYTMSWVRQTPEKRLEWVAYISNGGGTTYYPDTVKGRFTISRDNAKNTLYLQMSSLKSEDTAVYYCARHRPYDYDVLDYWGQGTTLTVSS VL: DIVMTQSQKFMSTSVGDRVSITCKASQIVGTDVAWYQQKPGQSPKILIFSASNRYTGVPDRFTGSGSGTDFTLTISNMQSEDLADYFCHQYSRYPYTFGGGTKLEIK | 0.62
exemplary anti-CD28 antibody AB1 (antibody, V domains shown, Mouse hybridoma monoclonal antibody; also called antibody 1; clone 1) VH: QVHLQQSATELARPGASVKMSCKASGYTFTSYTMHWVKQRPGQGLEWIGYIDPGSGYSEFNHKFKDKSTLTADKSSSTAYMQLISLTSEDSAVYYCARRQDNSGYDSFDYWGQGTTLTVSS VL: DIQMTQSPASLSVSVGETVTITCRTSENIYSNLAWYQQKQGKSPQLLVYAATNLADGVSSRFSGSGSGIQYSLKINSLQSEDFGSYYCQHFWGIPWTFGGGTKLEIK | 0.0072
